The origin of these recorded values is ChEMBL document CHEMBL6115057.

biological target: Aldo-keto reductase family 1 member C3 (Homo sapiens, UniProt P42330); test: Inhibition of AKR1C3 in human COLO 205 cells by Cell based AKR activity assay
Sequence (P42330 whole entry): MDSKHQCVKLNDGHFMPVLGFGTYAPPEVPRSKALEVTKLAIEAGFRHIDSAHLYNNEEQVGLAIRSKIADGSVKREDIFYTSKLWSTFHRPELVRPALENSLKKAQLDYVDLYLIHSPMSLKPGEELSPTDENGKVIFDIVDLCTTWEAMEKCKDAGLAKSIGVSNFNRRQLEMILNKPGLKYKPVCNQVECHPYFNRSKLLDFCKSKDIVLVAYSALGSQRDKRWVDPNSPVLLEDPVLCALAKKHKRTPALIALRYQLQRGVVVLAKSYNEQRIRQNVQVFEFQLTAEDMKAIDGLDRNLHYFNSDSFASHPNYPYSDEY
Recorded Metric: pIC50
When answering, recall that pIC50 equals minus log10 of the concentration in mol/L, and write that number alone.

Completed entries (count: 2):
[
  {
    "Compound String": "COc1ccccc1N1CCN(C(=O)c2cccc(S(=O)(=O)n3cnc(C4CC4)n3)c2)CC1",
    "Observed": 5.04
  },
  {
    "Compound String": "COc1ccccc1N1CCN(C(=O)c2ccc(S(=O)(=O)n3cnc(-c4cccc(F)c4)n3)cc2)CC1",
    "Observed": 6.21
  }
]

Kindly review the next molecule as well.
input: Field request: pIC50 | item: "COc1ccccc1N1CCN(C(=O)c2ccc(S(=O)(=O)n3cncn3)cc2)CC1"
output: 5.62
